# Tested on: ATP;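 also: ATP exposure 15 min at 22 °C before imaging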
# assay.summary: switch fluorescence ratio, 500 uM ATP over buffer (Cy3 cluster intensity, sum of 5 cycles each) (fold (ratio)); higher = stronger signal-on switching upon ATP binding; sequences stand for … in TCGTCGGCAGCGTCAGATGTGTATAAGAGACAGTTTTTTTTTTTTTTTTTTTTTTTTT…TC
# measurement.setup: aptamer strand: ATP DNA aptamer (quencher-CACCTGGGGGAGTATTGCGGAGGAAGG + anchor), 100 nM annealed; ATP concentration: 500 uM
Exercise: for every item that follows, state its recorded switch fluorescence ratio.
Hey, just send me the number, nothing else.

Incoming: So what's the measured switch fluorescence ratio for this one? GGGGTGGAAT
Outgoing: 1.03

Incoming: So what's the measured switch fluorescence ratio for this one? AAGTACCCGG
Outgoing: 1.14

Incoming: So what's the measured switch fluorescence ratio for this one? TCGCTTTTTG
Outgoing: 1.01

Incoming: So what's the measured switch fluorescence ratio for this one? CTAAATAGGG
Outgoing: 1.01

Incoming: So what's the measured switch fluorescence ratio for this one? GCGGGCCTGG
Outgoing: 1.01

Incoming: So what's the measured switch fluorescence ratio for this one? TTGAGAAAAG
Outgoing: 1.06

Incoming: So what's the measured switch fluorescence ratio for this one? GAGGATAGGG
Outgoing: 0.977

Incoming: So what's the measured switch fluorescence ratio for this one? CTGCGGCTGT
Outgoing: 1.02

Incoming: So what's the measured switch fluorescence ratio for this one? ATTCGTCAAT
Outgoing: 1.18

Incoming: So what's the measured switch fluorescence ratio for this one? ATTGGTGTCT
Outgoing: 1.01

Incoming: So what's the measured switch fluorescence ratio for this one? ATGGTCTGCC
Outgoing: 0.974

Incoming: So what's the measured switch fluorescence ratio for this one? CGGCCTTGCA
Outgoing: 1.03

Incoming: So what's the measured switch fluorescence ratio for this one? AGAGGGTTAC
Outgoing: 0.999

Incoming: So what's the measured switch fluorescence ratio for this one? CGGATCTGAG
Outgoing: 1.01

Incoming: So what's the measured switch fluorescence ratio for this one? ATGGTTGTCA
Outgoing: 1.03

Incoming: So what's the measured switch fluorescence ratio for this one? TGTCCGGGCT
Outgoing: 0.999

Incoming: So what's the measured switch fluorescence ratio for this one? GCTGATCTTA
Outgoing: 0.998

Incoming: So what's the measured switch fluorescence ratio for this one? TTGGTGCCTT
Outgoing: 1.07

Incoming: So what's the measured switch fluorescence ratio for this one? GTTAACGATA
Outgoing: 1.03

Incoming: So what's the measured switch fluorescence ratio for this one? AGTGTGGTCT
Outgoing: 1.02

Incoming: So what's the measured switch fluorescence ratio for this one? GCTATAATCG
Outgoing: 1.07

Incoming: So what's the measured switch fluorescence ratio for this one? TCAGGGTTGG
Outgoing: 0.978

Incoming: So what's the measured switch fluorescence ratio for this one? CACCAGTGCT
Outgoing: 1.62

Incoming: So what's the measured switch fluorescence ratio for this one? AGATGCCATG
Outgoing: 1.03

Incoming: So what's the measured switch fluorescence ratio for this one? TCCTGCTCCG
Outgoing: 1.56

Incoming: So what's the measured switch fluorescence ratio for this one? AGGGGGATCG
Outgoing: 0.979

Incoming: So what's the measured switch fluorescence ratio for this one? TTTGTTGTTA
Outgoing: 0.994

Incoming: So what's the measured switch fluorescence ratio for this one? GGGGAATGTG
Outgoing: 0.963

Incoming: So what's the measured switch fluorescence ratio for this one? AAGTTAAAA
Outgoing: 1.04

Incoming: So what's the measured switch fluorescence ratio for this one? TGGTAGGTGG
Outgoing: 1.02

Incoming: So what's the measured switch fluorescence ratio for this one? TTTAAATGCC
Outgoing: 1.05

Incoming: So what's the measured switch fluorescence ratio for this one? TGATTGAGTT
Outgoing: 1
